B1: TPR t1 (parent)
chain: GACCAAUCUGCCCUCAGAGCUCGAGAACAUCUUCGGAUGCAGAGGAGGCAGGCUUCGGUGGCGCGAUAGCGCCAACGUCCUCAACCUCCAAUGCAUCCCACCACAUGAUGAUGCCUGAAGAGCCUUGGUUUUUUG

- Variants of: B1
- measurementDescription: polymerase ribozyme fitness, log enrichment relative to wild type (log ratio); higher = more active; in vitro selection for triplet polymerase activity
Entry flag: YES if polymerase ribozyme fitness (log ratio) reaches -2; NO if it does not.

Examples with answers:
[
  {
    "var": "C11G G47A",
    "classLabel": "YES"
  },
  {
    "var": "A26G U130A",
    "classLabel": "NO"
  },
  {
    "var": "C22A A41U A90U A121G",
    "classLabel": "NO"
  },
  {
    "var": "C8A U9G U21G",
    "classLabel": "YES"
  },
  {
    "var": "A27C G57U G69U C124G",
    "classLabel": "YES"
  }
]

Exercise: Check if polymerase ribozyme fitness (log ratio) >= -2 (inclusive). Item: A2G G36C G48U G52U U59G C79G U112C
Solution: YES

Exercise: Check if polymerase ribozyme fitness (log ratio) >= -2 (inclusive). Item: U9G C40A U54G U81G C85A C123G
Solution: NO

Exercise: Check if polymerase ribozyme fitness (log ratio) >= -2 (inclusive). Item: A5G G10U C72G C86U C97U C114A
Solution: NO

Exercise: Check if polymerase ribozyme fitness (log ratio) >= -2 (inclusive). Item: C82A U125A
Solution: YES

Exercise: Check if polymerase ribozyme fitness (log ratio) >= -2 (inclusive). Item: A26U G71A
Solution: NO
